Listing of entries alongside the reported GI50.
System: RPMI-8226
Experiment: NCI tumour cell line growth inhibition, 48 h
Calls of active or inactive are those of the source. Cut-off read from the data, not from the text of the source: active = GI50 up to about 1.1 µM and inactive = higher.
measured.quantity: GI50

                                    compound       value_measured
 0  CCOP(=O)(OCC)C1CC(n2cc(C)c(=O)[nH]c2=O)OC1CO (stereo unspecified)  > 100 µM (inactive)
 1  Clc1cc(C(c2cc(Cl)sc2Cl)c2cc(Cl)sc2Cl)c(Cl)s1  > 100 µM (inactive)
 2  CN1C(=O)CC2(C)c3cc(O)ccc3N(C)C12 (stereo unspecified)     31 µM (inactive)
 3  C/N=C(\N)c1ccc(NC(=N)c2ccc(C(=N)Nc3ccc(/C(N)=N/C)cc3)cc2)cc1  > 100 µM (inactive)
 4   Clc1ccc(-c2nc3ccc4ccccc4c3c3c2CCCC3)cc1  > 100 µM (inactive)
 5  COc1ccc(CC2CCc3nc(N)nc(N)c3C2)cc1OC (stereo unspecified)   13.1 µM (inactive)
 6          N#C/C(=C\c1c(Cl)cccc1Cl)c1ccccc1   5.48 µM (inactive)
 7  O=c1[nH]nc(Cn2c3ccc(Br)cc3c3nc4ccccc4nc32)n1C1CCCCC1   21.3 µM (inactive)
 8  CC/C=C/c1cc2c(cc1O)CCC1C2CC[C@@]2(C)C1CC[C@@H]2O (stereo partly specified)   1.89 µM (inactive)
 9  C=C(c1ccccc1)C1(O)CCCCC1N (stereo unspecified)   50.7 µM (inactive)
10           C=CCN1CCC2(CC1)NC(=O)c1ccccc1O2  > 100 µM (inactive)
